# Tested on: M. tuberculosis P2SP1
# methodSummary: Anti-mycobacterium in vitro activity, P2SP1
# Assay type: cell-based, Mycobacterium tuberculosis
# setupConditions: Multi-drug resistant strain
readoutType: M. tuberculosis MIC P2SP1 (µg/mL)
All answers are understood in µg/mL, so give the number only.

Sample records with M. tuberculosis MIC P2SP1:
molecule	targetOrSystem	units	M. tuberculosis MIC P2SP1
Oc1cccc2cccnc12 [Compound 50, 8-hydroxyquinoline]	M. tuberculosis P2SP1	µg/mL	0.387
Oc1cccc2cccnc12 [Compound 51, 8-hydroxyquinoline]	M. tuberculosis P2SP1	µg/mL	0.387
Oc1cccc2cccnc12 [Compound 65, 8-hydroxyquinoline]	M. tuberculosis P2SP1	µg/mL	0.775
Oc1cccc2cccnc12 [Compound 53, 8-hydroxyquinoline]	M. tuberculosis P2SP1	µg/mL	0.775
Oc1cccc2cccnc12 [Compound 72, 8-hydroxyquinoline]	M. tuberculosis P2SP1	µg/mL	0.775
Oc1cccc2cccnc12 [Compound 10, 8-hydroxyquinoline]	M. tuberculosis P2SP1	µg/mL	0.387
Oc1cccc2cccnc12 [Compound 55, 8-hydroxyquinoline]	M. tuberculosis P2SP1	µg/mL	0.775
Nc1ccc(C(=O)O)c(O)c1 [p-aminosalicylate]	M. tuberculosis P2SP1	µg/mL	32

--- query ---
Qu. Under M. tuberculosis P2SP1: M. tuberculosis MIC P2SP1 value of Oc1cccc2cccnc12 [Compound 75, 8-hydroxyquinoline] ?
Ans. 0.775

###

# System: M. tuberculosis P1SP2
# methodSummary: Anti-mycobacterium in vitro activity, P1SP2
# Type: cell-based, Mycobacterium tuberculosis
# setupConditions: Mycobacterium tuberculosis, P1SP2; Multi-drug resistant strain
readoutType: MIC (µg/mL)
Give the value, in units of µg/mL, as a plain number.

Examples from the recorded data:
compound	targetOrSystem	endpointResult
CCc1cc(C(N)=S)ccn1 [Ethionamide]	M. tuberculosis P1SP2	32
CC[C@@H](CO)NCCN[C@@H](CC)CO	M. tuberculosis P1SP2	8
CC1COc2c(N3CCN(C)CC3)c(F)cc3c(=O)c(C(=O)O)cn1c23 (centres unmarked)	M. tuberculosis P1SP2	16

The record that follows has no MIC shown yet.
Qu. # get_value(readout='MIC', item= N[C@@H]1CON=C1O )
Ans. 8

###

# Test system: M. tuberculosis P1SP2
# methodSummary: Anti-mycobacterium in vitro activity, P1SP2
# Assay type: cell-based, Mycobacterium tuberculosis
# setupConditions: Mycobacterium tuberculosis, P1SP2; Multi-drug resistant strain
readoutType: MIC

compound	MIC
[H]/N=C(/N)N[C@H]1[C@H](O)[C@@H](O)[C@H](O[C@@H]2O[C@@H](C)[C@](O)(C=O)[C@H]2O[C@@H]2O[C@@H](CO)[C@H](O)[C@@H](O)[C@@H]2NC)[C@@H](N/C(N)=N\[H])[C@@H]1O [Streptomycin]	< 2 µg/mL
NC[C@H]1O[C@H](O[C@H]2[C@H](O)[C@@H](O[C@H]3O[C@H](CO)[C@@H](O)[C@H](N)[C@H]3O)[C@H](N)C[C@@H]2N)[C@H](O)[C@@H](O)[C@@H]1O [Kanamycin]	< 2 µg/mL
CO[C@H]1/C=C/O[C@@]2(C)Oc3c(C)c(O)c4c(O)c(c(/C=N/N5CCN(C)CC5)c(O)c4c3C2=O)NC(=O)/C(C)=C\C=C\[C@H](C)[C@H](O)[C@@H](C)[C@@H](O)[C@@H](C)[C@H](OC(C)=O)[C@@H]1C [Rifampicin]	> 16 µg/mL

Qu. For the compound NNC(=O)c1ccncc1 [Isoniazid (INH), Isoniazid] , what MIC is on record?
Ans. > 8 µg/mL
